Could you please report measured log10 EC50 for the items listed next?
SUBJECT OF TEST: human BLT1 receptor (Homo sapiens (Human), UniProt Q15722)
Sequence (Q15722 whole entry): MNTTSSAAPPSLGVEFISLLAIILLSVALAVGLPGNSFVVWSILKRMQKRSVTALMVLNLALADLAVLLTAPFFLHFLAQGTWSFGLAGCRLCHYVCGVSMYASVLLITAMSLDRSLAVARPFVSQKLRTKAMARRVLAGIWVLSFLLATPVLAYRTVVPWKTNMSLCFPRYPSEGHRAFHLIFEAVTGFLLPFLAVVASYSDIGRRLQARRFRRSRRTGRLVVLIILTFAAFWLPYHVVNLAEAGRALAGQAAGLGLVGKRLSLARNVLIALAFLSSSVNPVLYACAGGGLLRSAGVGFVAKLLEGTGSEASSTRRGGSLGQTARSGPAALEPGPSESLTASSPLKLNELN
TEST: BLT-1 cAMP Assay
Assay type: cell-based
EXPERIMENTAL SETUP: antagonist mode; HEK293 cells recombinantly expressing human BLT1 receptor; forskolin 4 μM and LTB4 2 nM; cAMP detection
Record value = log10 of EC50 given in nM.

- COMPOUND: "O=C(NS(=O)(=O)CC1CC1)c1ccccc1-c1ccc2c(c1)OCC(Cc1ccccn1)C2O (stereo not shown)"
  log10 EC50: 1.36
- COMPOUND: "CCn1nccc1C[C@@H]1COc2cc(-c3ccccc3C(=O)NS(=O)(=O)C(C)(C)C)ccc2[C@H]1O (racemic) [Example 36]"
  log10 EC50: 1.91
- COMPOUND: "CC(C)(C)S(=O)(=O)NC(=O)c1ccccc1-c1ccc2c(c1)OC[C@@H](Cc1coc(-c3ccccc3)n1)[C@@H]2O (single isomer, unassigned)"
  log10 EC50: 1.88
- COMPOUND: "O=C(NS(=O)(=O)C(F)(F)F)c1ccc(F)cc1-c1ccc2c(c1)OC[C@@H](Cc1ccccn1)[C@@H]2O (single isomer, unassigned)"
  log10 EC50: 2.81
- COMPOUND: "O=C(NS(=O)(=O)C1CC1)c1ccccc1-c1ccc2c(c1)OC[C@@H](Cc1ccccc1)[C@@H]2O (single isomer, unassigned)"
  log10 EC50: 3.45
- COMPOUND: "O=C(NS(=O)(=O)C1CC1)c1ccccc1-c1ccc2c(c1)OC[C@@H](Cc1ccccn1)[C@@H]2O (single isomer, unassigned)"
  log10 EC50: 3.34

Batch lookup, log10 EC50 per entry.
1. CCn1nccc1C[C@@H]1COc2cc(-c3ccccc3C(=O)NS(=O)(=O)C(C)(C)C)ccc2[C@H]1O (single isomer, unassigned) [Example 38]
2. CC1(S(=O)(=O)NC(=O)c2ccccc2-c2ccc3c(c2)OC[C@H](Cc2cscn2)[C@H]3O)CC1 (racemic) [Example 25]
3. CC(C)(C)CS(=O)(=O)NC(=O)c1ccccc1-c1ccc2c(c1)OCC(Cc1ccccn1)C2O (stereo not shown)
4. C[C@@H](c1ccccn1)C1COc2cc(-c3ccccc3C(=O)NS(=O)(=O)C3(C)CC3)ccc2C1O (stereo in doubt)
5. CC1(S(=O)(=O)NC(=O)c2ccccc2-c2ccc3c(c2)OC[C@@H](Cc2cscn2)[C@@H]3O)CC1 (single isomer, unassigned)
6. CC1(S(=O)(=O)NC(=O)c2ccccc2-c2ccc3c(c2)OC[C@@H](Cc2ccccc2)[C@@H]3O)CC1 (single isomer, unassigned)
7. O=C(NS(=O)(=O)C1CCCC1)c1ccccc1-c1ccc2c(c1)OCC(Cc1ccccn1)C2O (stereo not shown)

Result:
1: 3.06; 2: 1.20; 3: 1.64; 4: 2.19; 5: 2.89; 6: 3.31; 7: 1.68
